Readings of LD50 for the listed compounds
assay_text: in vivo
assay_context: mouse, in vivo, po
Counter-ions that a name gives are not always drawn.

(Q) # query: LD50 of entry CC(C(=O)OCC(=O)N1CCC(c2ccccc2)CC1)c1ccc(-c2ccccc2Cl)cc1 (centres unmarked)
(A) > 500 mg/kg

# input for lookup
(Q) # query: LD50 of entry CC(C(=O)OCC(=O)N1CCN(C)CC1)c1ccc(-c2ccccc2Cl)cc1 (centres unmarked) [Example 12, hydrochloride]
(A) > 500 mg/kg
